- System: Botrytis cinerea
- TEST_NAME: Fungicidal activity, fungi growth rate method, BC
- Format: cell-based
- CONDITION_NOTES: Botrytis cinerea; 50 μg/mL; read-out: Fungicidal activity, inhibition, BC
RESULT_TYPE: inhibition at 50 µg/mL (%)
Expressed in %, but write only the number.

Entry O=C(N/C(=C\c1ccc(F)cc1)C(=O)N1CCC(O)(c2ccc(Br)cc2)CC1)c1ccccc1 , system Botrytis cinerea: what inhibition at 50 µg/mL was measured?
10

# value lookup — system Botrytis cinerea, readout inhibition at 50 µg/mL, item O=C(N/C(=C\c1ccccc1)C(=O)N1CCC(O)(c2ccc(Br)cc2)CC1)c1ccc(F)cc1
48

Query the reported inhibition at 50 µg/mL for Botrytis cinerea; item: CC(C)(C)OC(=O)N1CCC(c2nc(/C=C(\NC(=O)c3ccccc3)C(=O)NCc3ccc(Br)cc3)cs2)CC1
32

Under Botrytis cinerea: inhibition at 50 µg/mL value of O=C(N/C(=C\c1ccccc1)C(=O)N1CCC(O)(c2ccc(Br)cc2)CC1)c1cccc([N+](=O)[O-])c1 ?
12
